# experiment_description: inhibitors of fungal efflux pumps CDR1, CDR2, MDR1, pilot screen, validation compound set, multiplex, phenotypic (AID 588506);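 further: Nile Red retained in cells so higher fluorescence means more efflux inhibition; 0 = negative control wells and 1 = enniatin B 25 µM full block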
# recorded_conditions: S. cerevisiae pump-expressing triplex, Nile Red efflux flow cytometry; at 10 µM; stronger effect = higher value; the pumps come from Candida albicans
Activity calls are given as the source filed them.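 How the source made its calls: active means efflux inhibition above 0.42, the validation set average plus 4 SD; inconclusive means no clear call, values can overlap the other calls; inactive means the rest.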
readout: efflux inhibition (fraction of control)

CC1(C)OC2OC(C(=O)N/N=C/c3ccccc3F)C3OC(C)(C)OC3C2O1 (configuration not stated)
0.52 (active)
CCOC(=O)/C=C1\NC(C)(C)Cc2cc(OC)c(OC)cc21
0.08 (inactive)
Cc1cnc(C(=O)N2CCCC(C(=O)c3ccc(Cl)cc3C)C2)cn1 (configuration not stated)
0.18 (inactive)
C[C@H](NC(=O)OC(C)(C)C)C(=O)NCC1CCC(C(=O)O)CC1 (some centres not stated)
-0.06 (inactive)
Cc1ccccc1C(OCCN(C)C)c1ccccc1 (configuration not stated)
0.03 (inactive)
CC[n+]1ccc2cc(OC)c(OC)cc2c1Cc1ccc(OC)c(OC)c1
-0.09 (inactive)

Query string: Bench note: what efflux inhibition (fraction of control) did CCOC(=O)c1ccccc1NC(=O)c1ccc(F)cc1 show?
Result string: 0.37 (inactive)

Query string: State the recorded efflux inhibition (fraction of control) for this entry: Cc1ccc2c(c1)OC(=O)CC2c1ccccc1 (configuration not stated)
Result string: 0.06 (inactive)

Query string: Can you look up the measured efflux inhibition (fraction of control) of CCN(CC)CCNc1ccc(CO)c2sc3ccccc3c(=O)c12 for me?
Result string: -0.39 (inactive)

Query string: Returns the measured efflux inhibition (fraction of control) for the input compound. Input: Cc1ccc(C(=O)N2CC3(C(C)C)CN(C(=O)c4ccc(C)cc4)CC(C(C)C)(C2)C3=O)cc1
Result string: 0.76 (active)

Query string: I'd like to know its efflux inhibition (fraction of control). The compound in question is O=C1C=CC(=O)C(C2=C3C(=O)N(CCc4ccccc4)CC(=O)N3CCC2)=C1
Result string: -0.28 (inactive)

Query string: So what's the measured efflux inhibition (fraction of control) for this one? C#CCN(C)Cc1ccccc1
Result string: -0.04 (inactive)

Query string: I have this compound here, Cc1nnc(SCC(=O)N2CCCC(C(=O)c3ccc(Cl)cc3)C2)o1 (configuration not stated) , and I need its recorded efflux inhibition (fraction of control).
Result string: 0.3 (inactive)

Attribution: PubChem BioAssay
